- Tested on: SCC-9 (Oral Cavity Carcinoma);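 further: after 72 h of two-drug dosing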
- protocol: Bliss excess, mean over the matrix (fraction); higher = more synergy
readout-type: Bliss excess

Solved entries:
compound	readout-type	result
Cn1cnc2c(F)c(Nc3ccc(Br)cc3Cl)c(C(=O)NOCCO)cc21 [Selumetinib] + CC(C)n1c(=O)n(C)c2cnc3cc(F)c(-c4ccc(OCCCN5CCCCC5)nc4)cc3c21 [AZD1390] (first compound max 10 µM, 7x7, partner max 0.3 µM)	Bliss excess	0.0185
N#Cc1cnc(Nc2cc(NC[C@H]3CNCCO3)c(C(F)(F)F)cn2)cn1 [SRA737] + CCc1c2c(nc3ccc(O)cc13)-c1cc3c(c(=O)n1C2)COC(=O)[C@]3(O)CC [SN-38] (first compound max 10 µM, 7x7, partner max 0.3 µM)	Bliss excess	0.0297
CN(CCO)CC[C@H](CSc1ccccc1)Nc1ccc(S(=O)(=O)NC(=O)c2ccc(N3CCC([C@@H](O)c4ccccc4-c4ccc(Cl)cc4)CC3)cc2)cc1S(=O)(=O)C(F)(F)F [AZD4320] + Nc1ccn([C@@H]2O[C@H](CO)[C@@H](O)C2(F)F)c(=O)n1 [Gemcitabine] (first compound max 1 µM, 7x7, partner max 0.3 µM)	Bliss excess	-0.0247

Request: Give Bliss excess for the following compound: C[C@@H](Nc1cc(F)cc(F)c1)c1cc(C(=O)N(C)C)cc2c(=O)cc(N3CCOCC3)oc12 [AZD8186] + CC(=O)c1c(C)c2cnc(Nc3ccc(N4CCNCC4)cn3)nc2n(C2CCCC2)c1=O [Palbociclib] (first compound max 10 µM, 7x7, partner max 10 µM)
Result: 0.0322
